Entry source: the supplement of paper PMC10567573

B1: WDFY1 (parent)
chain: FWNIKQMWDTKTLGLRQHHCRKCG

variants of: B1; assay: protein stability index of a GFP-peptide fusion (GPS, HEK-293T) (PSI 1-6); higher = more stable; settings: c terminus: a fixed tail appended;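 also: lentivirally expressed fusions sorted by FACS into six bins by GFP to DsRed ratio, PSI derived from sequencing read proportions per bin multiplied by bin number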
measurement-name: protein stability index
Write no unit; give the number alone.

Example variants with recorded protein stability index:
{"mutation-code": "Q17R", "measurement-name": "protein stability index", "endpoint-value": 2.75}
{"mutation-code": "T10L", "measurement-name": "protein stability index", "endpoint-value": 2.23}
{"mutation-code": "G24Y", "measurement-name": "protein stability index", "endpoint-value": 2.01}

We now examine a further variant.
Prompt: Which protein stability index value belongs to "L15A" ?
Completion: 2.27
